Collected melting point values appear next to each entry.

Worked examples follow.
O=C(CCCCCC1(C(=O)O)CCCC1)CCCCCC1(C(=O)O)CCCC1 [Compound 107m] | 78 to 85 °C
O=C(CCCCC1(C(=O)O)CCCC1)CCCCC1(C(=O)O)CCCC1 [Compound 107g] | 99 to 103 °C
O=C(CCCCCC1(C(=O)O)CC1)CCCCCC1(C(=O)O)CC1 [Compound 107l] | 122 to 123 °C

Turning now to a further compound:
Lab note: measured melting point of CC(C)(CCCCCCCC(=O)CCCCCCCC(C)(C)C(=O)O)C(=O)O [Compound 107n] was 74 to 77 °C
